Value source: paper PMC9697187

Assay: in vivo
Design: species or system cat
Settings: male, po, 25 mg/kg, Cmax of GS-441524
Property Measured: Cmax

## Task Dear colleague, please send me the reported Cmax for `N#C[C@@]1(c2ccc3c(N)ncnn23)O[C@H](CO)[C@@H](O)[C@H]1O` when you can.
## Result 13300 ng/mL

---

Assay: in vivo
Parameters: species or system cat
Settings: male, po, 25 mg/kg, AUC (AUC0-24) of GS-441524
Property Measured: AUC(0-t)
Please answer using a numeric value trailed by its unit.

## Task Provide measured AUC(0-t) value, entry: N#C[C@@]1(c2ccc3c(N)ncnn23)O[C@H](CO)[C@@H](O)[C@H]1O [GS-441524]
## Result 89700 ng·h/mL
